These entries and their values trace back to paper PMC12652692.

Measured GI50 (SF-539)

{"columns": ["given.smiles", "target.or.test.system", "GI50"],
 "data": [
  ["Cc1ccccc1[P+](CCCCOc1cc(O)c2c(=O)cc(-c3ccccc3)oc2c1)(c1ccccc1C)c1ccccc1C", "SF-539", "187 nM"],
  ["COc1ccc([P+](CCCCOc2cc(O)c3c(=O)cc(-c4ccccc4)oc3c2)(c2ccc(OC)cc2)c2ccc(OC)cc2)cc1", "SF-539", "410 nM"],
  ["O=c1cc(-c2ccccc2)oc2cc(OCCCC[P+](c3ccccc3)(c3ccccc3)c3ccccn3)cc(O)c12", "SF-539", "1060 nM"]
]}

Here is another compound to look at.
Lookup: Sample O=c1cc(-c2ccccc2)oc2cc(OCCCC[P+](C3CCCCC3)(C3CCCCC3)C3CCCCC3)cc(O)c12 — what was its GI50?
Found: 751 nM
